molecular target: High affinity choline transporter 1 (Homo sapiens, UniProt Q9GZV3); assay: CHT inhibitors, dose response, cell-based, 5-point CRC, membrane potential dye (AID 504840); format: functional
Calls of active or inactive are those of the source.
IC50 for assorted compounds

As a guide, the following entries are already answered.
{"columns": ["compound", "endpoint-label", "observed-measurement"],
 "data": [
  ["O=C(NC1CCCCCCC1)c1ccc(CNc2c(N3CCOCC3)c(=O)c2=O)cc1", "IC50", "0.875 µM (active)"],
  ["CC1CCCCC1NC(=O)c1ccc(S(=O)(=O)N2CCCC2)cc1 (configuration not stated)", "IC50", "13.2 µM (active)"],
  ["COc1ccc(NS(=O)(=O)c2ccc(NC(=O)c3ccccc3Br)cc2)nn1", "IC50", "10.3 µM (active)"],
  ["Oc1ccc(C[C@H]2NCCc3cc(O)c(O)cc32)cc1O", "IC50", "0.47 µM (active)"],
  ["O=C(Cn1ncc2c3ccccc3n(Cc3ccccc3F)c2c1=O)NCCN1CCOCC1", "IC50", "12 µM (active)"]
]}

Returns the measured IC50 for the input compound. Input: O=C(C1CCCN(c2ncnc3c2nc2n3CCCCC2)C1)N1CCN(c2ccc(Cl)cc2)CC1 (configuration not stated)
4.57 µM (active)

Returns the measured IC50 for the input compound. Input: COc1ccc(CN2CCN(C(C)C)C(CCO)C2)cc1Cn1cccn1 (configuration not stated)
3.31 µM (active)

---

target: UniProt:P38532; assay: HSF1 potentiators in luciferase reporter cells, confirmation, cell-based, NIH3T3, luminescence, dose retest (AID 435004); format: functional;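 also: stress induced by proteasome inhibitor MG132 added 30 min after compound; luciferase reporter driven by HSF1 response element in NIH3T3 cells; actives raise luminescence as potentiators of the MG132 stress response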
Calls of active or inactive are those of the source.
Pick one and only one: active, inactive

Reference set (10 entries):
{"columns": ["compound", "class-assignment"],
 "data": [
  ["CC(C)(c1ccccc1)c1ccc(OCCCN2CCNCC2)cc1", "active"],
  ["NCCCn1c(C(=O)c2cc(Cl)c(N)c(Cl)c2)c2ccc([N+](=O)[O-])cc2[n+]1[O-]", "active"],
  ["COc1cc(C(=O)Sc2ccc(Cl)cc2)cc(OC)c1OC", "active"],
  ["Cc1ccc(O)c(NC(=O)c2onc(C)c2Cl)c1", "active"],
  ["Cc1[nH]c2ccccc2c1CN1CCN(c2ccccn2)CC1", "active"],
  ["COc1ccc(C)cc1NC(=O)CSc1nnc(COc2ccc(Cl)cc2)n1Cc1ccco1", "active"],
  ["Cc1oc2ccc(NS(=O)(=O)c3ccc(C(C)(C)C)cc3)cc2c1C(=O)Nc1ccccc1", "inactive"],
  ["C=CCn1c(CCNC(=O)c2ccc(Cl)c(Cl)c2)nnc1SCCOc1ccc(OC)cc1", "active"],
  ["O=C(CC1(O)C(=O)Nc2ccc(Br)cc21)c1ccc2c(c1)OCO2 (stereo not drawn)", "inactive"],
  ["Cc1ccc(-c2cn(S(=O)(=O)c3ccc(C)cc3)nc2N)cc1", "inactive"]
]}

Recorded test call requested for `CC1=C(Sc2nc3ccccc3[nH]2)C(=O)NC(C)(C)C1`
inactive

Recorded test call requested for `COCCCNC(=O)c1cnc2ccc(S(=O)(=O)N3CCc4ccccc43)cc2c1O`
inactive

Recorded test call requested for `COc1ccc(-c2c(C)c3cc(O)ccc3oc2=O)cc1OC`
inactive

---

biological target: UniProt:P05186; assay: human TNAP enzyme inhibitors, SAR follow-up, biochemical, luminescent, dose response (AID 1056)
Active and inactive are the calls of the source.
Pick one and only one: T (active), F (inactive)

Reference set (3 entries):
{"columns": ["smiles-text", "target-system", "class-assignment"],
 "data": [
  ["CCOc1cc(S(=O)(=O)Nc2cccnc2)c(OCC)cc1C", "UniProt:P05186", "T"],
  ["O=S(=O)(Nc1ccccc1I)c1cnc2ccccc2c1", "UniProt:P05186", "F"],
  ["CCCCSc1nnc(N)[nH]1", "UniProt:P05186", "F"]
]}

Query molecule follows.
Recorded test call requested for `COc1ccccc1-c1nnc(SCC(=O)Nc2ccc(C)c(C)c2)[nH]1`
F
